- Experimental system: PI3K (Homo sapiens, UniProt P42336)
- Construct: PI3 Kinase α IC50; other: PI3 Kinase α; other: PI3 Kinase α isoform, fluorescence polarization
- Sequence (P42336 whole entry, canonical isoform): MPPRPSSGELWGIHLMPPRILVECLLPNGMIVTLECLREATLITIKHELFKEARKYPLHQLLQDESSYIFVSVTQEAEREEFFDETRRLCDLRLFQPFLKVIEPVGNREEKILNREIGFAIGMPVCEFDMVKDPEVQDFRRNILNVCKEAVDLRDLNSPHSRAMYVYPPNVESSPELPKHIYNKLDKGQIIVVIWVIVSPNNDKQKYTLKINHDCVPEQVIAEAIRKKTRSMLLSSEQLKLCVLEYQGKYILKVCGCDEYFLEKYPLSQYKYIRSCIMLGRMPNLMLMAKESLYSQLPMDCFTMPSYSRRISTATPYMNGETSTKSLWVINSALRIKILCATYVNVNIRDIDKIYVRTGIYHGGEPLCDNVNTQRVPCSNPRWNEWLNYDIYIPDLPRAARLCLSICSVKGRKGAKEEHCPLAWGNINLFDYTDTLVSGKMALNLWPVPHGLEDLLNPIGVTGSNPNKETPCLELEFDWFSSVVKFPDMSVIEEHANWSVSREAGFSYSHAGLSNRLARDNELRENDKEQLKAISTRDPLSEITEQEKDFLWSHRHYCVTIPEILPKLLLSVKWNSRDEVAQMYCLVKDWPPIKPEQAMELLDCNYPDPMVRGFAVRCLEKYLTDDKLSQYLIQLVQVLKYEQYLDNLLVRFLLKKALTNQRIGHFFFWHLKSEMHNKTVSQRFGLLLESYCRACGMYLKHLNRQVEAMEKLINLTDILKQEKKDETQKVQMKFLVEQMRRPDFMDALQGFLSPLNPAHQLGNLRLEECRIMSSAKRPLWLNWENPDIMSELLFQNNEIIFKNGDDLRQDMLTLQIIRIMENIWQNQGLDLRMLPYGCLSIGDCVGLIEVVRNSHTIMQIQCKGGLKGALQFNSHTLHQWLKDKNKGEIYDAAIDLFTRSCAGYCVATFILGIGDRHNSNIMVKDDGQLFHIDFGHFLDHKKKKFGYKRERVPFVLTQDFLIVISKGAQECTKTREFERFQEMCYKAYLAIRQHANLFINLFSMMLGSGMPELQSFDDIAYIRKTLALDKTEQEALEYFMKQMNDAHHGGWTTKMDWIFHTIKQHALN
- Test: Fluorescence polarization assay for PI3K
- Format: biochemical
- Cond: PI3 Kinase α; read-out: PI3 Kinase α IC50
- Description: This assay is used to determine the IC50 of compounds of the present invention as it identifies inhibitors of PI3 kinase by measuring inhibition. […] Stop/detector mix is prepared by mixing 4 μL Red detector and 1.6 μL or 2.0 μL GST-GRP with 1 mL Stop buffer, which results in 10 nM probe and 70 nM GST-GRP). […] The plates are read after 30-90 minutes keeping the red probe solutions dark. […] Plates are read on machines with filters for Tamra. […]
Property name: IC50 (nM)

>>> reading("CCOC(=O)N1CCC(n2ncc3c(N4CC5CCC(C4)O5)nc(-c4ccc(NC(=O)Nc5ccccc5)cc4)nc32)CC1 [Example 33]")
215
>>> reading("CNC(=O)Nc1ccc(-c2nc(N3CC4CCC(C3)O4)c3cnn(CCF)c3n2)cc1 [Example 241]")
551
>>> reading("CCOC(=O)N1CCC(n2ncc3c(N4CC5CCC(C4)O5)nc(-c4ccc(NC(=O)NC5CCNCC5)cc4)nc32)CC1 [Example 103]")
874
>>> reading("CCn1ncc2c(N3CC4CCC(C3)O4)nc(-c3ccc(NC(=O)Nc4ccc(C(N)=O)cc4)cc3)nc21 [Example 285]")
23
